System Under Test: CoV-2 (SARS-CoV-2)
Metric Name: xmid (log10)

Binder	Experimental Value
vhh_tstrep_sars2_pjl1_L_24 (VHH) VHH: QVQLQESGGGLVQAGGSLRLSCAASGRTFSEYAMGWFRQAPGKEREFVATISWSGGSTAYTDSVKGRFTISRDNAKNTVYLQMNSLKPDDTAVYYCAAAGLGTVVSEWDYDYDYWGQGTQVTVSS	0.515
vhh_tstrep_sars2_pjl1_L_47 (VHH) VHH: QVQLQESGGGLVQAGGSLRLSCAASGRTFSEYAMGWFRQAPGKEREFVATISWSGGSTYYTDSVKGRFTISRDNAKNTVYLQMNSLKPDDTAVYYCAAAGLGTVVSEWDYDADYWGQGTQVTVSS	1.45
vhh_tstrep_sars2_pjl1_L_40 (VHH) VHH: QVQLQESGGGLVQAGGSLRLSCAASGRTFSEYAMGWFRQAPGKEREFVATISWSGGSTYYTASVKGRFTISRDNAKNTVYLQMNSLKPDDTAVYYCAAAGLGTVVSEWDYDYDYWGQGTQVTVSS	0.226
vhh_tstrep_sars2_pjl1_L_4 (VHH) VHH: QVQLQESGGGLVQAGGSLRLSCAASGRTFSEYAMGWFRQAPGKEREFVATISWSGGSTYYTDSVKGRFTISRDNAKNTVYLQMNSLKPDDTAVYYCAAGGLGTVVSEWDYDYDYWGQGTQVTVSS	0.752
vhh_tstrep_sars2_pjl1_L_1 (VHH) VHH: QVQLQESGGGLVQAGGSLRLSCAASGRTFSEYAMGWFRQAPGKEREFVATISWSGGSTYYTDSVKGRFTISRDNAKNTVYLQMNSLKPDDTAVYYCGAAGLGTVVSEWDYDYDYWGQGTQVTVSS	0.839
